ASSAY OVERVIEW: protein stability index of a GFP-peptide fusion (GPS, HEK-293T) (PSI 1-6); higher = more stable;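 note: 24-mer peptide tiles fused after GFP, lentivirally expressed, FACS-sorted into six equal bins by GFP/DsRed ratio, decoded by Illumina sequencing, PSI is the read-weighted mean bin number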
SETTINGS: treatment: MLN4924 1 uM, 8 h; c terminus: a fixed tail appended

{"RECORD SEQUENCE": "AKILPSPVQGSSEDNLSLVCLPRS [DRICH1]", "protein stability index": 4.04}
{"RECORD SEQUENCE": "LDLRVKGILSSQAEGLANGPDVLE [EHMT1]", "protein stability index": 4.07}
{"RECORD SEQUENCE": "QSSCSGPTHTPRPADFSLGSLPGP [VENTX]", "protein stability index": 3.89}
